# experimental-target: human ether-à-go-go-related gene (hERG) potassium channel (human, UniProt Q12809)
# Sequence (Q12809 whole entry, looked up): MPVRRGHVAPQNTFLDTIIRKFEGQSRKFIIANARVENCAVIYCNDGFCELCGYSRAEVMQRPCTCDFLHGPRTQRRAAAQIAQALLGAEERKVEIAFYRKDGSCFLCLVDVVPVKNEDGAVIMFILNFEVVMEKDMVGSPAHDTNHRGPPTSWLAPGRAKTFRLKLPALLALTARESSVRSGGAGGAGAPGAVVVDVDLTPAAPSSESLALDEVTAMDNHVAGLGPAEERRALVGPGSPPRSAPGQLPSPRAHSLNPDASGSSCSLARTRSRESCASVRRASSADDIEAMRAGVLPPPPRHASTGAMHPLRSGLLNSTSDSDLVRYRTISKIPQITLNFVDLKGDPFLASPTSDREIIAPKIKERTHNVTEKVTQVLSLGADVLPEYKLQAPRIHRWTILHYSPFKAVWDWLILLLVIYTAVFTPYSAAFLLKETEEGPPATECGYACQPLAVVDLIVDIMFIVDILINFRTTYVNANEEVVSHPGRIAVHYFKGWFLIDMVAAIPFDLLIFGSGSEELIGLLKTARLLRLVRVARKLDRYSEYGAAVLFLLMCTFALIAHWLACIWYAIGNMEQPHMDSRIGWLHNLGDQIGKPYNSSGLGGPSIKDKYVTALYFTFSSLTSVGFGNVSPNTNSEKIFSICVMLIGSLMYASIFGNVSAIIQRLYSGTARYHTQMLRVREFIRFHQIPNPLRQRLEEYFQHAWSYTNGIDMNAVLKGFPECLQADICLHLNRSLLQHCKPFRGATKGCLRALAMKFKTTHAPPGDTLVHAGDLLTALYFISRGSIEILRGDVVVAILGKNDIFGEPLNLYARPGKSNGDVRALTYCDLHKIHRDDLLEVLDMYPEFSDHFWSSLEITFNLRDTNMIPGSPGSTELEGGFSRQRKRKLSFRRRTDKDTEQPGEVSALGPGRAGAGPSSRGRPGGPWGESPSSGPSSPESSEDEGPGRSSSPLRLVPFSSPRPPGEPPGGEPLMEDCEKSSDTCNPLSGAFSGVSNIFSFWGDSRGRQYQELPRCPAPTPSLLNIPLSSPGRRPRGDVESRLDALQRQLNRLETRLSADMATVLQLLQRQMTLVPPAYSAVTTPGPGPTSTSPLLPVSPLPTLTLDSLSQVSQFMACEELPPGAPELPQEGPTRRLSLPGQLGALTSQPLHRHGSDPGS
# assay: primary screen, population patch clamp on CHO cells stably expressing hERG; higher = less effect of the substance
In all, about 310,000 compounds went through this assay and about 2,200 (0.71%) showed an effect of 50% or more. Effects have a minus sign here. The sample as a whole holds a higher share of strong results than the screen did.
measured-metric: hERG current change (%, negative = inhibition) at 1uM

COc1ccc(Cl)c(N2CCN(CCCNC(=O)Nc3ccc(C)cc3)CC2)c1	-24.5%
O=C(Cc1ccc(Cl)cc1)NCC(=O)N1CCCCCC1	4.89%
COc1ccc2c(c1)c1c3n2CCN(C)C3=NCC1.Cl	-54.9%
CCOC(=O)c1[nH]c2ccc(OCC)cc2c1NC(=O)CN1CCN(c2ccccc2)CC1	15.9%
CCOC(=O)c1[nH]c2ccc(F)cc2c1NC(=O)CN1CCc2cc(OC)c(OC)cc2C1	11.2%

Exercise: Which hERG current change (%, negative = inhibition) at 1uM is reported for this molecule? COc1ccc(N2CCN(CCCNC(=O)Nc3ccccc3)CC2)cc1
Solution: -50.5%

Exercise: May I ask what hERG current change (%, negative = inhibition) at 1uM has been recorded for COC(=O)c1[nH]c2ccccc2c1NC(=O)CN1CCCCCC1 ?
Solution: -3.6%

Exercise: What value of measured hERG current change (%, negative = inhibition) at 1uM is listed for COc1cc(S(=O)(=O)N2CCOCC2)ccc1NC(=O)c1cc2c(s1)CCC2 ?
Solution: 3.78%

Exercise: Any idea what its hERG current change (%, negative = inhibition) at 1uM is? The molecule is COc1ccc(NC(=O)NCCN2CCN(c3cc(OC)ccc3OC)CC2)cc1
Solution: 13.5%

Exercise: // returns reported hERG current change (%, negative = inhibition) at 1uM for input COc1ccccc1N1CCN(CCCNC(=O)Nc2ccccc2)CC1
Solution: -28.8%

---

# experimental-target: human ether-à-go-go-related gene (hERG) potassium channel (human)
# assay: primary screen, population patch clamp on CHO cells stably expressing hERG; higher = less effect of the substance
Screen size: about 310,000 compounds; about 2,200 (0.71%) showed an effect of 50% or more. The effect is printed as a negative number. Many of the other results were omitted from the sample, so strong results are more common in it than they were.
measured-metric: hERG current change (%, negative = inhibition) at 1uM (%)
Give your result in % as a bare value.

Worked cases, hERG current change (%, negative = inhibition) at 1uM given:
CN(C)CC(C)(C)CNC(C(=O)Nc1ccc(Cl)cc1C(F)(F)F)c1ccccc1 (stereo not drawn)	-72.3
COc1cc(S(=O)(=O)Nc2ccccc2N2CCCCC2)ccc1NC(C)=O	-4.5

Exercise: Recorded hERG current change (%, negative = inhibition) at 1uM for CC(=O)c1ccc(OCC(O)CN2CCN(c3ccc(F)cc3)CC2)cc1.Cl (stereo not drawn) , please?
Solution: -64.9

Exercise: Sample CN(C)CCNC(C(=O)Nc1cccc(C(F)(F)F)c1)c1ccccc1.O=C(O)C(=O)O (stereo not drawn) — what was its hERG current change (%, negative = inhibition) at 1uM?
Solution: -14.6

Exercise: // lookup hERG current change (%, negative = inhibition) at 1uM for CCOC(=O)C1CCN(C(=O)c2sccc2Cl)CC1
Solution: 12.5

Exercise: Could you share which hERG current change (%, negative = inhibition) at 1uM value was measured for Cc1cccc(OCC(O)CN2CCc3ccccc3C2)c1.Cl (stereo not drawn) ?
Solution: -0.945

Exercise: Sample C/C(CC(=O)NCc1ccco1)=N\NC(=O)C(c1ccccc1)c1ccccc1 — what was its hERG current change (%, negative = inhibition) at 1uM?
Solution: 6.69

Exercise: Item CCC(=O)c1ccc(OCC(O)CN2CCN(c3ccc(F)cc3)CC2)cc1 (stereo not drawn) has what recorded hERG current change (%, negative = inhibition) at 1uM?
Solution: -15.1

Exercise: Please look up its hERG current change (%, negative = inhibition) at 1uM: C=CCn1c(SCC(=O)Nc2cccnc2Cl)nnc1-c1ccc(C(C)(C)C)cc1
Solution: 9.68

Exercise: Value lookup for hERG current change (%, negative = inhibition) at 1uM; key = Cl.OC(COCC1COc2ccccc2O1)CN1CCN(c2ccc(F)cc2)CC1 (stereo not drawn)
Solution: -57.6

Exercise: Param item = COc1ccccc1Nc1nc(N)nc(CN2CC(C)CC(C)C2)n1 (stereo not drawn) ; retrieve measured hERG current change (%, negative = inhibition) at 1uM.
Solution: -70.8

Exercise: What hERG current change (%, negative = inhibition) at 1uM value was documented for this molecule, CC1CC(C)CN(C(=S)SCc2nc(N)nc(Nc3ccccc3)n2)C1 (stereo not drawn) ?
Solution: 7.72
